Biological target: T1, Anti-CD28 Fab (SEQ ID NOs: 696, 697)
T1 construct: Biotinylated and captured on neutravidin coated plates in the phage ELISA
T1 sequence (VH, as listed by the source, chain 1 of 2): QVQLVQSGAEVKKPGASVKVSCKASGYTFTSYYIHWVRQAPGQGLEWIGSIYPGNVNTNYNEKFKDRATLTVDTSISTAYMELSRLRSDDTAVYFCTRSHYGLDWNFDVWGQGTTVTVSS
T1 sequence (VL, as listed by the source, chain 2 of 2): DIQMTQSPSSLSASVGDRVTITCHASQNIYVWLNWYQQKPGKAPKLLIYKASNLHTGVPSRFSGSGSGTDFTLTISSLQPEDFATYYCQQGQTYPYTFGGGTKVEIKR
Assay: phage binding ELISA; biotinylated anti-CD28 Fab on neutravidin plate, clonal phage supernatant, anti-M13 HRP detection
measured-parameter: Anti-CD28 Fab signal (phage binding ELISA)

INSERT INTO measurements (binder, value_observed) VALUES
  ('YCEGHLPEYRNKCL (peptide, not shown: large carriers, Clonal phage of the Peptide-87 optimisation library, tested as crude supernatant) [Phage-493]', 2.38),
  ('YCEGHLPEYLGKCL (peptide, not shown: large carriers, Clonal phage of the Peptide-87 optimisation library, tested as crude supernatant) [Phage-486]', 1.23),
  ('YCEGHAPEYMAKCL (peptide, not shown: large carriers, Clonal phage of the Peptide-87 optimisation library, tested as crude supernatant) [Phage-499]', 2.47),
  ('YCEGHLPEYIQKCL (peptide, not shown: large carriers, Clonal phage of the Peptide-87 optimisation library, tested as crude supernatant) [Phage-495]', 1.9),
  ('YCEGHLPEYLEKCV (peptide, not shown: large carriers, Clonal phage of the Peptide-87 optimisation library, tested as crude supernatant) [Phage-494]', 2.11),
  ('YCEGHLPEYLAKCL (peptide, not shown: large carriers, Clonal phage of the Peptide-87 optimisation library, tested as crude supernatant) [Phage-488]', 2.34);

# input Note down Anti-CD28 Fab signal (phage binding ELISA) recorded for YCEGHSQEYLWKCL (peptide, not shown: large carriers, Clonal phage of the Peptide-87 optimisation library, tested as crude supernatant) [Phage-489]
# output 2.36

# input Note down Anti-CD28 Fab signal (phage binding ELISA) recorded for YCEGHSSEYIQKCL (peptide, not shown: large carriers, Clonal phage of the Peptide-87 optimisation library, tested as crude supernatant) [Phage-490]
# output 2.25
